# Test system: PEG-3
# Assay Details: Peg3 promoter luciferase inhibitors, potency, dose response, cell-based, HeLa, CREF/GAPDH counter-screen panel (AID 624167)
# Setup Conditions: HeLa PEG-Prom luciferase reporter, overnight, CREF/GAPDH counter-screens, run 1, dose range 1, individual replicate IC50 per panel
Could you mark each record Met if its IC50 falls strictly under 20 µM, and Not met if it equals or exceeds it?

See these solved cases before continuing.
- CC1(C(=O)NCc2cccc3ccccc23)CCN1C(=O)Cc1ccc(-c2ccccc2)cc1 (stereo unspecified): Met
- CCCc1nc(SCC(=O)N2CCCc3ccccc32)c2c(=O)n(C)c(=O)n(C)c2n1: Not met
- COc1ccc(-c2cc(C(F)F)n3ncc(C(=O)n4ccnc4C)c3n2)cc1: Met
- Cc1ccc(C)c(NP(=O)(Oc2ccccc2)Oc2ccccc2)c1: Not met
- CCCSc1ccc2nc(-c3ccccc3)cn2c1: Met
- O=C1NC(=S)N(c2ccccc2F)C(=O)/C1=C\c1cccs1: Met
- COc1ccc(Nc2nc(-c3ccccc3)nc3ccccc23)cc1S(=O)(=O)N1CCOCC1: Met
- Oc1c(Br)cc(Br)c2cccnc12: Met
- CCc1nc(Sc2nnnn2-c2ccccc2)c2c3c(sc2n1)CCCC3: Not met

Okay, now this molecule:
In the record for "Cc1cc(C)c(C)c(S(=O)(=O)N2CCN(C(=O)c3cc(=O)[nH]c4ccccc34)CC2)c1C" , is IC50 less than 20 µM? Met
